Tested on: 621-102 (TSC2-deficient);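 further: renal angiomyolipoma cell lines screened in 384-well plates, viability normalized per plate to DMSO-treated cells, each plate carrying 50 nM rapamycin and 1 µM staurosporine controls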
protocol description: relative viability vs DMSO (fraction); higher = less cytotoxic
condition set: 0.32 nM; serum: 0.1% FBS; 72 h
observable: relative viability

Qu. What measured relative viability goes with CCOc1ccn(-c2ccc(F)cc2)c(=O)c1C(=O)Nc1ccc(Oc2ccnc(N)c2Cl)c(F)c1 ?
Ans. 0.972

Qu. Fill in the blank: the reported relative viability of CC(C)C[C@H](NC(=O)CNC(=O)c1cc(Cl)ccc1Cl)B(O)O is ____.
Ans. 0.991

Qu. Suppose we examine the compound CC1(C)CC(=O)c2c(C(F)(F)F)nn(-c3ccc(C(N)=O)c(N[C@H]4CC[C@H](O)CC4)c3)c2C1 ; what relative viability value has been reported?
Ans. 0.381

Qu. # lookup: relative viability of CO[C@@H](C(=O)N1Cc2[nH]nc(NC(=O)c3ccc(N4CCN(C)CC4)cc3)c2C1)c1ccccc1
Ans. 0.92

Qu. Entry Cc1cnc(NC(=O)Nc2cc(Br)c(C)cc2OC[C@@H]2CNCCO2)cn1 : reported relative viability = ?
Ans. 0.185

Qu. Item CO[C@H]1C[C@@H]2CC[C@@H](C)[C@@](O)(O2)C(=O)C(=O)N2CCCC[C@H]2C(=O)O[C@H]([C@H](C)C[C@@H]2CC[C@@H](OC(=O)C(C)(CO)CO)[C@H](OC)C2)CC(=O)[C@H](C)/C=C(\C)[C@@H](O)[C@@H](OC)C(=O)[C@H](C)C[C@H](C)/C=C/C=C/C=C/1C has what recorded relative viability?
Ans. 0.714

Qu. Give the measured relative viability of COCC[n+]1c2c(n(Cc3cnccn3)c1C)C(=O)c1ccccc1C2=O .
Ans. 1.05

Qu. Dear colleague, I am looking for the recorded relative viability of the following compound: Nc1ccccc1NC(=O)c1ccc(CNc2nccc(-c3cccnc3)n2)cc1
Ans. 0.857

Qu. Report relative viability for CN(C)C1CCN(C(=O)c2ccc(NC(=O)Nc3ccc(-c4nc(N5CCOCC5)nc(N5CCOCC5)n4)cc3)cc2)CC1 please.
Ans. 0.471
